experiment: excess molar enthalpy (molar enthalpy of mixing); xn = mol fraction of the nth substance listed; conditions: 298.15 K; 101 kPa; Liquid; Calvet calorimetry; x1 = 0.65
Endpoint name: excess molar enthalpy (kcal/mol)

{"columns": ["Compound", "Endpoint name", "Test value"],
 "data": [
  ["FC(F)(F)C(F)(F)C(F)(F)C(F)(F)C(F)(F)C(F)(F)C(F)(F)F [hexadecafluoroheptane] + CCCCCC", "excess molar enthalpy", 0.467],
  ["FC(F)(F)C(F)(F)C(F)(F)C(F)(F)C(F)(F)C(F)(F)F [perfluorohexane] + CCCCCCC", "excess molar enthalpy", 0.485],
  ["FC(F)(F)C(F)(F)C(F)(F)C(F)(F)C(F)(F)C(F)(F)F [perfluorohexane] + CCCCCC", "excess molar enthalpy", 0.469],
  ["FC(F)(F)C(F)(F)C(F)(F)C(F)(F)C(F)(F)C(F)(F)F [perfluorohexane] + C1CCCCC1", "excess molar enthalpy", 0.503],
  ["FC(F)(F)C(F)(F)C(F)(F)C(F)(F)C(F)(F)C(F)(F)C(F)(F)C(F)(F)F [octadecafluorooctane] + CCCCCC", "excess molar enthalpy", 0.394],
  ["FC(F)(F)C(F)(F)C(F)(F)C(F)(F)C(F)(F)C(F)(F)F [perfluorohexane] + CCCCCCCC", "excess molar enthalpy", 0.442]
]}

----------
assay: excess molar enthalpy (molar enthalpy of mixing); xn = mol fraction of the nth substance listed; details: 298.15 K; 101 kPa; Liquid; Calvet calorimetry; x1 = 0.6
Label scheme for excess molar enthalpy: lower than 0.5 kcal/mol is false (0), 0.5 kcal/mol and above is true (1).

{"columns": ["Compound", "Label"],
 "data": [
  ["FC(F)(F)C(F)(F)C(F)(F)C(F)(F)C(F)(F)C(F)(F)C(F)(F)C(F)(F)F [octadecafluorooctane] + CCCCCC", "false (0)"],
  ["FC(F)(F)C(F)(F)C(F)(F)C(F)(F)C(F)(F)C(F)(F)F [perfluorohexane] + C1CCCCC1", "true (1)"],
  ["FC(F)(F)C(F)(F)C(F)(F)C(F)(F)C(F)(F)C(F)(F)F [perfluorohexane] + CCCCCCCC", "false (0)"],
  ["FC(F)(F)C(F)(F)C(F)(F)C(F)(F)C(F)(F)C(F)(F)C(F)(F)F [hexadecafluoroheptane] + CCCCCC", "false (0)"]
]}

----------
Listing: excess molar enthalpy of selected compounds
assay: excess molar enthalpy (molar enthalpy of mixing); xn = mol fraction of the nth substance listed; conditions: 298.15 K; 101 kPa; Liquid; Calvet calorimetry; x1 = 0.35
Endpoint name: excess molar enthalpy (kcal/mol)

{"columns": ["Compound", "Test value"],
 "data": [
  ["FC(F)(F)C(F)(F)C(F)(F)C(F)(F)C(F)(F)C(F)(F)C(F)(F)F [hexadecafluoroheptane] + CCCCCC", 0.474],
  ["FC(F)(F)C(F)(F)C(F)(F)C(F)(F)C(F)(F)C(F)(F)F [perfluorohexane] + C1CCCCC1", 0.513],
  ["FC(F)(F)C(F)(F)C(F)(F)C(F)(F)C(F)(F)C(F)(F)F [perfluorohexane] + CCCCCCCC", 0.443],
  ["FC(F)(F)C(F)(F)C(F)(F)C(F)(F)C(F)(F)C(F)(F)F [perfluorohexane] + CCCCCCC", 0.487],
  ["FC(F)(F)C(F)(F)C(F)(F)C(F)(F)C(F)(F)C(F)(F)F [perfluorohexane] + CCCCCC", 0.473],
  ["FC(F)(F)C(F)(F)C(F)(F)C(F)(F)C(F)(F)C(F)(F)C(F)(F)C(F)(F)F [octadecafluorooctane] + CCCCCC", 0.456]
]}
